B1: tRNA (parent)
chain: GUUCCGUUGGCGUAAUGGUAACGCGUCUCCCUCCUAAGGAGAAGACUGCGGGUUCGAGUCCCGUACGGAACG

Variants of: B1
Assay: yeast fitness relative to wild type (ratio to wild type); higher = fitter; tRNA-Arg(CCU), competitive growth, 37 C, YPD
This sample holds only a part of the variants without activity.
Reported Metric: yeast fitness
Returns: the value as a bare number; no unit string appended.

q: Data request, read-out yeast fitness, for G38C C62U A65G
a: 0.502
